target_of_assay: human JAK2 kinase domain (JH1) (Homo sapiens, UniProt O60674)
Construct: recombinantly generated catalytic kinase (also known as JH1) domain of human JAK1, JAK2, JAK3 and TYK2
Sequence (O60674 849-1124 limits assumed): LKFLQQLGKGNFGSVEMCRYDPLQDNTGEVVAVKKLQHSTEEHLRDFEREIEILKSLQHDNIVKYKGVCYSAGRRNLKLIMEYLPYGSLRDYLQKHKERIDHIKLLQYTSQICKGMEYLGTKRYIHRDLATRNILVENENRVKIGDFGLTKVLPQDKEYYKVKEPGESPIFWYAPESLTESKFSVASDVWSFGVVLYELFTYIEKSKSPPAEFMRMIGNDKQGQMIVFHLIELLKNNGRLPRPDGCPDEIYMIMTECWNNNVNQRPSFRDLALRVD
assay: JH1 biochemical assay for JAK2 (ADP-Glo kinase assay, recombinant JH1 catalytic domain, JAK3-974 peptide, 15 μM ATP)
cond: JAK2 JH1, ADP-Glo
pIC50: −log10 of the molar value. Counter-ions that a name gives are not always drawn.
endpoint_label: pIC50

With human JAK2 kinase domain (JH1) (Homo sapiens, UniProt O60674) as the test system, "C[C@@H]1CN(c2c[nH]c3ncc(-c4cnn(C)c4)cc23)C(=O)[C@]1(C#N)C1CC1" showed pIC50 of > 7.00

With human JAK2 kinase domain (JH1) (Homo sapiens, UniProt O60674) as the test system, "COc1cncc(-c2cn3ncc(F)c3c(N3C[C@@H](C)[C@@](C#N)(C4CC4)C3=O)n2)c1" showed pIC50 of 5.30 to 6.00

With human JAK2 kinase domain (JH1) (Homo sapiens, UniProt O60674) as the test system, "C[C@@H]1CN(c2nc(-c3cccnc3)cn3ncc(F)c23)C(=O)[C@]1(C#N)C1CC1" showed pIC50 of 5.30 to 6.00

More entries:
With human JAK2 kinase domain (JH1) (Homo sapiens, UniProt O60674) as the test system, C[C@@H]1CN(c2nc(-c3ccc(O)nc3)cn3nccc23)C(=O)[C@]1(C#N)C1CC1 [Example 267, trifluoroacetate] showed pIC50 of 6.00 to 7.00

With human JAK2 kinase domain (JH1) (Homo sapiens, UniProt O60674) as the test system, "COCc1cnn(-c2cc3c(N4C[C@@H](C)[C@@](C#N)(C5CC5)C4=O)ccnn3c2)c1" showed pIC50 of 6.00 to 7.00

With human JAK2 kinase domain (JH1) (Homo sapiens, UniProt O60674) as the test system, "CCn1cc(-n2nc(N3C[C@@H](C)[C@@](C#N)(C4CC4)C3=O)c3ccncc32)cn1" showed pIC50 of 6.00 to 7.00

With human JAK2 kinase domain (JH1) (Homo sapiens, UniProt O60674) as the test system, C[C@@H]1CN(c2nc(-c3cnc4c(c3)OCC(=O)N4C)cn3nccc23)C(=O)[C@]1(C#N)C1CC1 [Example 235, trifluoroacetate] showed pIC50 of 6.00 to 7.00

With human JAK2 kinase domain (JH1) (Homo sapiens, UniProt O60674) as the test system, C[C@@H]1CN(c2ccnn3cc(-c4cnn([C@@H]5COCC(F)(F)C5)c4)cc23)C(=O)[C@]1(C#N)C1CC1 (single isomer, unassigned) showed pIC50 of > 7.00

With human JAK2 kinase domain (JH1) (Homo sapiens, UniProt O60674) as the test system, "C[C@@H]1CN(c2nc(-c3cnn(C4CN(C)C4)c3)cc3ncsc23)C(=O)[C@]1(C#N)C1CC1" showed pIC50 of > 7.00
